- targetOfAssay: SHP2-C SH2;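 note: peptide library displayed on the E. coli surface as eCPX fusions, selected cells deep-sequenced, score is each peptide's frequency after selection divided by its frequency in the input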
- experimentalDetails: SH2 binding enrichment of the phosphorylated peptide, bacterial display (enrichment ratio); higher = better substrate or ligand; peptides without Tyr show the background
Label scheme for SH2 binding enrichment: lower than 0.6 is Condition not met, 0.6 and above is Condition met.

query: Check if SH2 binding enrichment >= 0.6 (inclusive). Item: CTTIHQNYMCN [TP53_Y234_Y234Q]
result: Condition met

query: Check if SH2 binding enrichment >= 0.6 (inclusive). Item: KPGLKYVTYGN [GALNTL5_Y404]
result: Condition met

query: Check if SH2 binding enrichment >= 0.6 (inclusive). Item: SQQTFCRVSNM [ABCD1_Y181_Y181C_YF]
result: Condition met

query: Check if SH2 binding enrichment >= 0.6 (inclusive). Item: MDDPRYGMCPL [ZNF100_Y6]
result: Condition not met

query: Check if SH2 binding enrichment >= 0.6 (inclusive). Item: ERKQTYGSCRK [LACTB_Y473]
result: Condition met
